Could you please report measured pEC50 for the items listed next?
Target: HER2 InsVC (G776delinsVC) transformed Ba/F3 cells (Homo sapiens, UniProt P04626, G776C/INS775V)
Sequence (P04626 with tags, fused parts or gaps INS775V/G776C): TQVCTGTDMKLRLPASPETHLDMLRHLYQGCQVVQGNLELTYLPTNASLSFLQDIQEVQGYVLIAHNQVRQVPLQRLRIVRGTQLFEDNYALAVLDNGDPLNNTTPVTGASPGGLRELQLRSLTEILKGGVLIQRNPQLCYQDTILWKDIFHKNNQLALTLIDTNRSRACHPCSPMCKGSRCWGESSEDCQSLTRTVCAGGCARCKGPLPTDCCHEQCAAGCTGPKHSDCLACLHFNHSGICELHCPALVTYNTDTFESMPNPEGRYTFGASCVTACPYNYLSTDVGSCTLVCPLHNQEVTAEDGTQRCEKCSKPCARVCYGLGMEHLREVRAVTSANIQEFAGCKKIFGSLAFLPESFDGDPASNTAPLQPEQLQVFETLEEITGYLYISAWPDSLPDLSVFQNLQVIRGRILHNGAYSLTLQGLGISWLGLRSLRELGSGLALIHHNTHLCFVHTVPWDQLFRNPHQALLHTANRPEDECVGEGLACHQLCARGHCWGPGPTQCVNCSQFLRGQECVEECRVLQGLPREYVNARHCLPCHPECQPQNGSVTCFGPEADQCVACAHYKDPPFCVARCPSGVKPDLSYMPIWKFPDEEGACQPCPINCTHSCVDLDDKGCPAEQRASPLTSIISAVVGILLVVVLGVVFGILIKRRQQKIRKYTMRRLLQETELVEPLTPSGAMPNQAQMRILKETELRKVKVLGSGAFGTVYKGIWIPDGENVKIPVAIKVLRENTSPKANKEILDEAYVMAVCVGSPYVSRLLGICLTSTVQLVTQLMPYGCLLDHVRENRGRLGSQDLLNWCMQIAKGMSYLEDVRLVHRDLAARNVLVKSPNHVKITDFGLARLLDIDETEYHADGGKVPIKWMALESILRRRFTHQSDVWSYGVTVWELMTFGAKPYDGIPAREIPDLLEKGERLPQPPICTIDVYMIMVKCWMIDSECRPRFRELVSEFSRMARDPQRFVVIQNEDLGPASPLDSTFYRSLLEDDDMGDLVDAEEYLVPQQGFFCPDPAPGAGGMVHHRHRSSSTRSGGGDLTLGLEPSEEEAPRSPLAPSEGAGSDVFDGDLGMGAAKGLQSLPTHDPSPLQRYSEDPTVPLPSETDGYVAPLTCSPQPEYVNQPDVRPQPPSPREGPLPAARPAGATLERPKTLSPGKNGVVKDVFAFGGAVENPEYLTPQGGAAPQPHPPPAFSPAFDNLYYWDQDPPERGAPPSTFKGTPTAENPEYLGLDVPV
Assay: Proliferation inhibition assay, HER2 InsVC transformed Ba/F3 cells
Conditions: MTS assay, 72 hours, Table 9 key
Procedure: Cell growth inhibition can be assessed by MTS assay or by Cell Titer Glo Luminescent Cell viability assay (Promega®). […] The viability of the cells are then assessed. […] Cell growth inhibition was assessed by MTS assay for Ba/F3, DFCI58-229, and DFCI127c cells, or by Cell Titer Glo Luminescent Cell viability assay (Promega®) for DFC1362JC cells, 3000 Ba/F3 cells were seeded for per well in 96-well plates, and were exposed to representative compounds of the application (3.3 nM to 10 μM) for 72 hours. […]
pEC50: −log10 of the molar value.

Item C=CC(=O)Nc1cccc(-n2c(=O)c(Oc3ccc(F)cc3F)cc3cnc(Nc4ccc(N5CCC(N6CCN(C)CC6)CC5)cc4)nc32)c1 [Compound 7] has what recorded pEC50?
6.60 to 7.00

Item C=CC(=O)Nc1cccc(-n2c(=O)c(Oc3ccc(F)cc3F)cc3cnc(Nc4ccc(N5CCN(C)CC5)cc4OC)nc32)c1 [Compound 6] has what recorded pEC50?
6.60 to 7.00

Item C=CC(=O)Nc1cccc(-n2c(=O)c(Oc3ccc(F)cc3F)cc3cnc(Nc4cnn(C(F)F)c4)nc32)c1 [Compound 5] has what recorded pEC50?
6.60 to 7.00

Item C=CC(=O)Nc1cccc(-n2c(=O)c(Oc3ccc(F)cc3F)cc3cnc(Nc4cnn(C)c4)nc32)c1 [Compound 2] has what recorded pEC50?
> 7.00

Cited source for all entries: patent US11945816B2
